Data origin, for the record: the supplement of paper PMC11061612

Test system: NCI-H2595 (Mesothelioma)
assay-text: combination Emax (second highest fraction inhibited in the dose matrix, 72 h); higher = more inhibition; extreme values may be limits of the assay
combination Emax vs 0.2: at or above is true, below is false.

>>> assigned_label("CC(=O)c1c(C)c2cnc(Nc3ccc(N4CCNCC4)cn3)nc2n(C2CCCC2)c1=O [Palbociclib] + CC1(C)CCC(CN2CCN(c3ccc(C(=O)NS(=O)(=O)c4ccc(NCC5CCOCC5)c([N+](=O)[O-])c4)c(Oc4cnc5[nH]ccc5c4)c3)CC2)=C(c2ccc(Cl)cc2)C1 [Venetoclax] (first compound max 10 µM, 7x7, partner max 1 µM)")
"false"
>>> assigned_label("C[C@@H](Oc1cc(-c2cnn(C3CCNCC3)c2)cnc1N)c1c(Cl)ccc(F)c1Cl [Crizotinib] + Cn1cnc2c(F)c(Nc3ccc(Br)cc3Cl)c(C(=O)NOCCO)cc21 [Selumetinib] (first compound max 10 µM, 7x7, partner max 10 µM)")
"true"
>>> assigned_label("CN(CCO)CC[C@H](CSc1ccccc1)Nc1ccc(S(=O)(=O)NC(=O)c2ccc(N3CCC([C@@H](O)c4ccccc4-c4ccc(Cl)cc4)CC3)cc2)cc1S(=O)(=O)C(F)(F)F [AZD4320] + C[C@@H]1COCCN1C2=NC(=NC(=C2)C3(CC3)[S@](=N)(=O)C)C4=C5C=CNC5=NC=C4 [AZD6738] (first compound max 1 µM, 7x7, partner max 10 µM)")
"true"
>>> assigned_label("CS(=O)(=O)CCNCc1ccc(-c2ccc3ncnc(Nc4ccc(OCc5cccc(F)c5)c(Cl)c4)c3c2)o1 [Lapatinib] + Cn1cnc2c(F)c(Nc3ccc(Br)cc3Cl)c(C(=O)NOCCO)cc21 [Selumetinib] (first compound max 10 µM, 7x7, partner max 10 µM)")
"true"
>>> assigned_label("Cc1nc(-c2cn3c(n2)-c2ccc(-c4cnn(C(C)(C)C(N)=O)c4)cc2OCC3)n(C(C)C)n1 [Taselisib] + O=C(Nc1ccc2[nH]nc(-c3ccncc3)c2c1)[C@@H]1CCN(CC(=O)N2CCN(c3ccc(-c4ncccn4)cc3)CC2)C1 [SCH772984] (first compound max 10 µM, 7x7, partner max 5 µM)")
"true"
>>> assigned_label("CS(=O)(=O)CCNCc1ccc(-c2ccc3ncnc(Nc4ccc(OCc5cccc(F)c5)c(Cl)c4)c3c2)o1 [Lapatinib] + C[C@@H](Oc1cc(-c2cnn(C3CCNCC3)c2)cnc1N)c1c(Cl)ccc(F)c1Cl [Crizotinib] (first compound max 10 µM, 7x7, partner max 10 µM)")
"true"
>>> assigned_label("CC1(C)CCC(CN2CCN(c3ccc(C(=O)NS(=O)(=O)c4ccc(NCC5CCOCC5)c([N+](=O)[O-])c4)c(Oc4cnc5[nH]ccc5c4)c3)CC2)=C(c2ccc(Cl)cc2)C1 [Venetoclax] + C=CCn1c(=O)c2cnc(Nc3ccc(N4CCN(C)CC4)cc3)nc2n1-c1cccc(C(C)(C)O)n1 [AZD1775] (first compound max 1 µM, partner max 1 µM)")
"false"
